# Test system: CAL-120
# methodSummary: drug sensitivity score (DSS), CellTiter-Glo (DSS (AUC-based score)); higher = stronger drug effect (viability inhibition or cytotoxicity); extreme values may be limits of the assay
# testConditions: incubation time: 72 h
quantityKind: drug sensitivity score

• Nc1ncn([C@H]2C[C@H](O)[C@@H](CO)O2)c(=O)n1 = 0.811
• Cc1ccc(-c2cc(C(F)(F)F)nn2-c2ccc(S(N)(=O)=O)cc2)cc1 = 0
• CCCCC(=O)OCC(=O)[C@]1(O)Cc2c(O)c3c(c(O)c2[C@@H](O[C@H]2C[C@H](NC(=O)C(F)(F)F)[C@H](O)[C@H](C)O2)C1)C(=O)c1c(OC)cccc1C3=O = 0
• CC(=O)Nc1cccc(-n2c(=O)n(C3CC3)c(=O)c3c(Nc4ccc(I)cc4F)n(C)c(=O)c(C)c32)c1 = 5.16
• CC[C@H](C)C(=O)O[C@H]1C[C@H](O)C=C2C=C[C@H](C)[C@H](CC[C@@H](O)C[C@@H](O)CC(=O)O)[C@H]21 = 2.92
• COc1cc2nccc(Oc3ccc(NC(=O)Nc4cc(C)on4)c(Cl)c3)c2cc1OC = 0

* * *

Readings of drug sensitivity score for the listed molecules
# Test system: Hs578T
# methodSummary: drug sensitivity score (DSS), CellTox Green (DSS (AUC-based score)); higher = stronger drug effect (viability inhibition or cytotoxicity); extreme values may be limits of the assay
# testConditions: incubation time: 72 h
quantityKind: drug sensitivity score

* CC1=C(/C=C/C(C)=C/C=C/C(C)=C/C(=O)O)C(C)(C)CCC1 [Tretinoin] | 7.23
* COc1cc([C@@H]2c3cc4c(cc3[C@@H](O[C@@H]3O[C@@H]5CO[C@@H](c6cccs6)O[C@H]5[C@H](O)[C@H]3O)[C@H]3COC(=O)[C@H]23)OCO4)cc(OC)c1O [Teniposide] | 2.53
* O=C(/C=C/c1cccnc1)NCCCCC1CCN(C(=O)c2ccccc2)CC1 [Daporinad] | 0
* C=CCc1cccc(/C=N/NC(=O)CN2CCN(Cc3ccccc3)CC2)c1O [PAC-1] | 0
* CC[C@H](Nc1ncnc2[nH]cnc12)c1nc2cccc(F)c2c(=O)n1-c1ccccc1 [GS-1101] | 0
* COc1cc2nccc(Oc3ccc(NC(=O)Nc4cc(C)on4)c(Cl)c3)c2cc1OC [Tivozanib] | 3.86

* * *

# maps each entry to its normalised response
# Test system: CAL-51
# methodSummary: normalised response (% of control), CellTiter-Glo; higher = more viable cells (100 = DMSO, 0 = benzethonium chloride kill control)
# testConditions: incubation time: 72 h
quantityKind: normalised response (%)

- CCc1cncnc1N1CCN(Cc2nc3ccc(C(F)(F)F)cc3[nH]2)CC1 (10 nM): 111
- CC(=O)Nc1cccc(-n2c(=O)n(C3CC3)c(=O)c3c(Nc4ccc(I)cc4F)n(C)c(=O)c(C)c32)c1 [Trametinib] (25 nM): 105
- CCc1cncnc1N1CCN(Cc2nc3ccc(C(F)(F)F)cc3[nH]2)CC1 (1 nM): 125
- COc1cc2c(Oc3ccc4[nH]c(C)cc4c3F)ncnc2cc1OCCCN1CCCC1 [Cediranib] (1 nM): 131

* * *

normalised response values for the compounds below.
# Tested on: MDA-MB-436
# methodSummary: normalised response (% of control), CellTiter-Glo; higher = more viable cells (100 = DMSO, 0 = benzethonium chloride kill control)
# testConditions: incubation time: 72 h
quantityKind: normalised response (%)

- C=CCc1cccc(/C=N/NC(=O)CN2CCN(Cc3ccccc3)CC2)c1O [PAC-1] (1 nM): 97.5
- COc1cc2nccc(Oc3ccc(NC(=O)Nc4cc(C)on4)c(Cl)c3)c2cc1OC [Tivozanib] (1000 nM): 101
- CCCS(=O)(=O)Nc1ccc(F)c(C(=O)c2c[nH]c3ncc(-c4ccc(Cl)cc4)cc23)c1F [Vemurafenib] (10 nM): 88.7
- O=C(O)C1(C(=O)O)CCC1.[NH2-].[NH2-].[Pt+2] [Carboplatin] (1 nM): 101

Numbers sourced from the supplement of paper PMC4862054.
